Provenance of the data: paper PMC5540273

Can you tell me %Inh for the items I'm about to list?
System: NEK4;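 note: KINOMEscan kinase panel screen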
Assay context: concentration: 1 μM, replicates: in singlicate; n = 1
Entry rule: numbers only, all in %.

Give reported %Inh for CCC(=O)c1c(-c2ccccc2)c2cc(Cl)ccc2c(=O)n1Cc1cc(C(=O)NC2CC2)n(C)n1 (NEK4)
16

Give reported %Inh for C[C@@H]1CC[C@H](C(=O)NC2CCCCC2)CN1c1cc(-c2ccc3c(N)n[nH]c3c2)nc(N)n1 [GSK2291363] (NEK4)
18

Give reported %Inh for O=C(Nc1n[nH]c2nc(-c3ccccc3)c(Cl)cc12)C1CC1 [SB-734909] (NEK4)
23

Give reported %Inh for CCn1c(-c2nonc2N)nc2ccccc21 [SB-693162/GW549034] (NEK4)
11

Give reported %Inh for Cc1nn2c(=O)cc(N3CCOCC3)nc2n1Cc1cccc(Cl)c1Cl [GSK2342769] (NEK4)
9

Give reported %Inh for Cc1cccc(-c2nc(Nc3ccc4c(cnn4C)c3)c3ccccc3n2)n1 [GW876731] (NEK4)
0

Give reported %Inh for COc1ccc(-c2coc3ccc(-c4nnc(SCc5cccc(C#N)c5)o4)cc23)cc1 (NEK4)
3

Give reported %Inh for Nc1nccc2scc(-c3ccc4c(c3)CCN4C(=O)Cc3ccccc3)c12 [GSK2576924] (NEK4)
0

Give reported %Inh for Nc1ncnc2c1ncn2-c1ccc(Cl)cc1 [AH2635] (NEK4)
0

Give reported %Inh for Nc1ncnc2c1ncn2-c1cccc(F)c1 [SKF-97560] (NEK4)
21

Give reported %Inh for Nc1n[nH]c2nnc(-c3ccccc3)c(-c3ccccc3)c12 [GW554060] (NEK4)
0

Give reported %Inh for Cc1nnc(-c2ccc3ncn(-c4ccc(S(C)=O)cc4)c3c2)o1 (stereo not shown) (NEK4)
0

Give reported %Inh for COC(=O)c1c(-c2ccccc2)c2cc(Br)ccc2c(=O)n1Cc1ccc(S(C)(=O)=O)cc1 (NEK4)
17

Give reported %Inh for COC(=O)c1c(-c2ccccc2)c2cc(Br)ccc2c(=O)n1Cc1ccc(NC(=O)CCC(=O)O)cc1 (NEK4)
1

Give reported %Inh for COC(=O)c1c(-c2ccccc2)c2cc(C)ccc2c(=O)n1Cc1ccccc1 (NEK4)
0

Give reported %Inh for Cc1ccc(-c2ccc3c(ccc4sc5c(c43)NC[C@@H](C)N=C5N(C)C)n2)cn1 (NEK4)
0

Give reported %Inh for Cc1nc(N(C)[C@H]2CN(C(=O)CC#N)CC[C@H]2C)c2cc[nH]c2n1 (NEK4)
4

Give reported %Inh for COc1cc(Nc2nccc(N3CCC(NC(=O)C(C)c4ccc(Cl)cc4)C3)n2)cc(OC)c1OC (stereo not shown) [GSK1379757] (NEK4)
0

Give reported %Inh for COc1cc2nccc(Nc3ccc(OCc4ccc(NC(C)=O)cc4)cc3)c2cc1OC.Cl [GW440135] (NEK4)
0
